Cited source: ChEMBL document CHEMBL5154815

assay: Volume of distribution at steady state in fasted C57BL/6 mouse at 3 mg/kg, iv by LC-MS/MS analysis; format: ADME, organism-based; conditions: in vivo, read-out: Vdss
measured_quantity: Vd (L/kg)

structure_as_smiles=CC(=O)Nc1ccc(Nc2ncnc(NCCC(=O)OC(C)(C)C)n2)cc1 measured_quantity=Vd unit_name=L/kg test_result=1.75

* * *

test: Half life in fasted C57BL/6 mouse at 10 mg/kg, po by LC-MS/MS analysis; assay type: ADME, organism-based; conditions: in vivo
measured_quantity: half-life (h)

structure_as_smiles=CC(=O)Nc1ccc(Nc2ncnc(NCCC(=O)OC(C)(C)C)n2)cc1 unit_name=h test_result=1.37
